Source: patent US20060153834A1

# assayedTarget: 14C-Fc fragment of HIgG (human)
# methodSummary: secondary screening, batch, Fc fragment non-competitive (PBS)
No end group written: not given here.
Measured Bound % accompanies every entry in the list below.

{"binder": "HFDKGFA-{Toyopearl AF‑Amino‑650 resin}", "Bound % (%)": 12.9}
{"binder": "HWRGWVA-{Toyopearl AF‑Amino‑650 resin}", "Bound % (%)": 82.5}
{"binder": "HYGLGWA-{Toyopearl AF‑Amino‑650 resin}", "Bound % (%)": 19.8}
{"binder": "WHWRKRA-{Toyopearl AF‑Amino‑650 resin}", "Bound % (%)": 88.2}
{"binder": "HANGFLA-{Toyopearl AF‑Amino‑650 resin}", "Bound % (%)": 10.2}
{"binder": "HEILYWA-{Toyopearl AF‑Amino‑650 resin}", "Bound % (%)": 18}
{"binder": "YYWLHHA-{Toyopearl AF‑Amino‑650 resin}", "Bound % (%)": 40.4}
